tested on: Vero E6 infected with SARS-CoV-2; experiment: inhibition of SARS-CoV-2 cytopathic effect; higher = more antiviral protection, active = above 15; conditions: 1 nM; 48 h
Each entry below carries its recorded inhibition of SARS-CoV-2 cytopathic effect.
Number only, in %; omit the unit.

CCN(CCO)CCCOc1ccc2c(Nc3cc(CC(=O)Nc4cccc(F)c4)[nH]n3)ncnc2c1 ... -1.93
NCCc1c[nH]c2ccc(C(N)=O)cc12 ... 2.2
CC(=O)S[C@@H]1CC2=CC(=O)CC[C@]2(C)[C@H]2CC[C@@]3(C)[C@@H](CC[C@@]34CCC(=O)O4)[C@H]12 ... -0.66

Q: Kindly indicate its recorded inhibition of SARS-CoV-2 cytopathic effect. Item: O=C1OC(CN2CCOCC2)CN1/N=C/c1ccc([N+](=O)[O-])o1 (centres undefined)
Result: -10.1

Q: Check the records and state inhibition of SARS-CoV-2 cytopathic effect for NC(=O)C(c1ccccc1)(c1ccccc1)[C@@H]1CCN(CCc2ccc3c(c2)CCO3)C1
Result: -1.18

Q: Note down inhibition of SARS-CoV-2 cytopathic effect recorded for CC(C)Nc1cc(-c2c[nH]c(C(=O)N[C@H](CO)c3cccc(Cl)c3)c2)c(Cl)cn1
Result: -2.18

Q: Please report inhibition of SARS-CoV-2 cytopathic effect for the following compound: O=c1c(O)c(-c2ccc(O)cc2O)oc2cc(O)cc(O)c12
Result: -1.74

Q: For the compound c1ccc(N2CCN(Cc3nc4ccccc4[nH]3)CC2)nc1 , give its measured inhibition of SARS-CoV-2 cytopathic effect value.
Result: 3.44

Q: Supply recorded inhibition of SARS-CoV-2 cytopathic effect for CCN(CC)C(=O)N[C@H]1C[C@@H]2c3cccc4[nH]cc(c34)C[C@H]2N(C)C1 [terguride] here.
Result: -0.35

Q: Report inhibition of SARS-CoV-2 cytopathic effect for COc1ccccc1OC(=O)C(C)c1ccc(CC(C)C)cc1 (centres undefined) [metoxibutropate]
Result: -3.38

Q: Retrieve inhibition of SARS-CoV-2 cytopathic effect measured for C[C@@H]([C@@H](O)c1ccc(O)cc1)N1CCC(O)(c2ccccc2)CC1 and print it.
Result: 4.34

Q: Return the recorded inhibition of SARS-CoV-2 cytopathic effect value; entry: CN1CCN(C(=O)C2C(C(=O)O)[C@H]3CC[C@@H]2O3)CC1 (some centres undefined)
Result: -1.86

Q: Look up inhibition of SARS-CoV-2 cytopathic effect of CN1CCN(c2ccc3nc(-c4c(N)c5c(F)cccc5[nH]c4=O)[nH]c3c2)CC1 and report it.
Result: 1.8

Q: Return value of inhibition of SARS-CoV-2 cytopathic effect for input O=C1C2C=Nc3ccccc3C2=NN1c1ccc(Cl)cc1 (centres undefined) , no commentary.
Result: 0.17

Q: Tell me measured inhibition of SARS-CoV-2 cytopathic effect for Cc1ccc(O)c([C@H](CCN(C(C)C)C(C)C)c2ccccc2)c1 please.
Result: 2.11

Q: Name the recorded inhibition of SARS-CoV-2 cytopathic effect of the compound listed here: NC(=O)CC[C@H](N)C(=O)O
Result: 0.7

Q: // Input: CN(Cc1cnc2nc(N)nc(N)c2n1)c1ccc(C(=O)N[C@@H](CCC(=O)O)C(=O)O)cc1 [methotrexate] . Output its inhibition of SARS-CoV-2 cytopathic effect only.
Result: -1.04

Q: For the compound COc1cc(CCc2cc(NC(=O)c3ccc(N4CC(C)NC(C)C4)cc3)n[nH]2)cc(OC)c1 (centres undefined) , give its reported inhibition of SARS-CoV-2 cytopathic effect.
Result: -1.78

Q: Using the record for CCN1CCCC1CNC(=O)c1cc(S(=O)(=O)CC)c(N)cc1OC (centres undefined) [amisulpride] , state its measured inhibition of SARS-CoV-2 cytopathic effect.
Result: 2.43

Q: Tell me its inhibition of SARS-CoV-2 cytopathic effect given CC1(C)S[C@@H]2[C@H](NC(=O)Cc3ccccc3)C(=O)N2[C@H]1C(=O)O as the entry.
Result: -3.59

Values from the supplement of paper PMC13380429
